Target: T1, recombinant human CD3 epsilon/gamma heterodimer (human, UniProt P07766 23-126; P09693 23-116)
T1 construct: Recombinant protein in solution (200-50 nM) in the Octet assay; also called hCD3 E/G
T1 sequence (P07766 23-126, chain 1 of 2): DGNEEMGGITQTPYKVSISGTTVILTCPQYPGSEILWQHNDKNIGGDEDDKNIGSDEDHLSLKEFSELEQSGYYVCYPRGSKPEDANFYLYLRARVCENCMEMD
T1 sequence (P09693 23-116, chain 2 of 2): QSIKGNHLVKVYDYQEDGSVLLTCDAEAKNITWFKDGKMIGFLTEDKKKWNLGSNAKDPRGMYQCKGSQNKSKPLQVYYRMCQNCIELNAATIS
Test: Octet BLI, mAb on FAB2G sensor, hCD3 E/G 200-50 nM; R^2 0.99
Measured Kd of individual entries

[
  {
    "binder": "ABL-CD3-59 (antibody, V domains shown, Chimeric hybridoma mAb: human V, CH1, upper hinge; mouse middle hinge, CH2, CH3) VH: EVQLVESGGGLVKPGGSLRLSCTASGFTLSSYSMNWVRQAPGKGLEWVSSLSRSSNYIYYAVSVKGRFTISRDNAKNSLYLQMNSLRAEDTAVYYCARERWELLYFDYWGQGTLVTVSS VL: NFMLTQPHSVSESPGKTVTISCTRSSGSIASNYVQWYQQRPGSSPTTVIYEDNQRPSGVPDRFSGSIDSSSNSASLTISGLQTEDEADYYCQSYDNSIRVFGGGTKLTVL",
    "Kd / nM": 43.3
  },
  {
    "binder": "ABL-CD3-24 (antibody, V domains shown, Chimeric hybridoma mAb: human V, CH1, upper hinge; mouse middle hinge, CH2, CH3) VH: EVQLVESGGGLVKPGGSLRLSCVASGFTFSSYTMNWVRQAPGKGLEWVSSISRSGSYKYNADSVKGRFTISRDNAKNSLYLQMNSLRVEDTAVYYCAREPPTLGMDYWGQGTLVTVSS VL: NFMLTQPHSVSESPGKTVTISCTRSSGSIASNYVQWYQQRPGSSPTTVIYEDNQRPSGVPDRFSGSIDSSSNSASLTISGLKTEDEADYYCQSFYSSNRVFGGGTELTVL",
    "Kd / nM": 8.48
  },
  {
    "binder": "ABL-CD3-57 (antibody, V domains shown, Chimeric hybridoma mAb: human V, CH1, upper hinge; mouse middle hinge, CH2, CH3) VH: EVQLVESGGGLVKPGGSLRLSCAASGFTFSSYTMNWVRQAPGKGLEWVSSISTSSRYIYYTDSVKGRFTISRDDAKNSLYLQMNSLRAEDTAVYYCTRNWGYDVFDIWGQGTMVIVSS VL: QPVLTQPSSHSASSGASVRLTCMLSSGFSVGDFWIRWYQQKPGNPPRYLLYYHSDSNKGQGSGVPSRFSGSNDASANAGILRISGLQPEDEADYYCGTWHSNSKTQVFGGGTKLTVL",
    "Kd / nM": 3.97
  },
  {
    "binder": "ABL-CD3-5 (antibody, V domains shown, Chimeric hybridoma mAb: human V, CH1, upper hinge; mouse middle hinge, CH2, CH3) VH: EVQLVESGGGLVQPGGSLRLSCAASGFTFSRYSMNWVRQAPGKGLEWVSYISSSSSSIYYADSVKGRFTISRDNAKNSLYLQMNSLRDEDTAVYYCARDRRATLDYWGQGTLVTVSS VL: NFMLTQPHSVSESPGKTVTISCTRSSGSIASNYVQWYQQRPGSSPTTVIYEDNQRPSGVPDRFSGSIDSSSNSASLTISGLKTEDEADYYCQSYDSSNHVFGGGTKLTVL",
    "Kd / nM": 106
  },
  {
    "binder": "ABL-CD3-26 (antibody, V domains shown, Chimeric hybridoma mAb: human V, CH1, upper hinge; mouse middle hinge, CH2, CH3) VH: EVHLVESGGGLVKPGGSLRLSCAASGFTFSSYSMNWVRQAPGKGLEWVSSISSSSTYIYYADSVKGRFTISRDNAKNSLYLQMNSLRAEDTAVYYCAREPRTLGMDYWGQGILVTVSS VL: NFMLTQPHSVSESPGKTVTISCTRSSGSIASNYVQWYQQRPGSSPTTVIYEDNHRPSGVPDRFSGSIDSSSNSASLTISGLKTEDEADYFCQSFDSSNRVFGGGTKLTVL",
    "Kd / nM": 9.31
  },
  {
    "binder": "ABL-CD3-47 (antibody, V domains shown, Chimeric hybridoma mAb: human V, CH1, upper hinge; mouse middle hinge, CH2, CH3) VH: EVQLVESGGGLVQPGGSLRLSCAASGFTFSRYSMNWVRQAPGKGLEWVSYISRSSTTIYYADSVKGRFTISRDNAKNSLYLQMNSLRDEDAAVYYCARERWELLYFDYWGQGTLVTVSS VL: NFMLTQPHSVSESPGKTVTISCTRSSGSIASKYVQWYQQRPGSSPTTVIYEDNQRPSGVPDRFSGSIDSSSNSASLTISGLKTEDEADYYCQSYYSNNRVFGGGTKLTVL",
    "Kd / nM": 36.2
  },
  {
    "binder": "ABL-CD3-55 (antibody, V domains shown, Chimeric hybridoma mAb: human V, CH1, upper hinge; mouse middle hinge, CH2, CH3) VH: EVQLVESGGGLVKPGGSLRLSCAASGFTFSIYSMNWVRQAPGKGLEWVSSISSGSSYIYYADSVKGRFTISRDNAKSSLFLQMNSLRAEDTAVYYCAREKRELLFDYWGQGTLVTVSS VL: NFMLTQPHSVSESPGKTVTISCTRSSGSIASNYVQWYQQRPGSSPTTVIYEDNQRPSGVPDRFSGSIDRSSNSASLTISGLKTEDEADYYCQSYDSSNRVFGGGTKLTVL",
    "Kd / nM": 141
  },
  {
    "binder": "ABL-CD3-10 (antibody, V domains shown, Chimeric hybridoma mAb: human V, CH1, upper hinge; mouse middle hinge, CH2, CH3) VH: QVQLQQSGPGLVKPSQTLSLTCAISGDSVSCNSVAWNWIRQSPSRGLEWLGRTYYRSKWHNEYAVSVKSRINIKPDTSKNQVSLQLKSVTPEDTAVYYCARERKWELFLDYWGQGTLVTVSS VL: NFMLTQPHSVSESPGKTVTISCTRSSGSIASNYVQWYQQRPGSSPTTMIYEDNQRPSGVPDRFSGSIDSSSNSASLTISGLKTEDEADYYCQSLDSSSVVFGGGTKLTVL",
    "Kd / nM": 2.41
  },
  {
    "binder": "ABL-CD3-41 (antibody, V domains shown, Chimeric hybridoma mAb: human V, CH1, upper hinge; mouse middle hinge, CH2, CH3) VH: EVQLVESGGGLVKPGGSLRLSCAASGFTFSSYSMNWVRQAPGKGLEWVSSVNSRGSYIYYADSVKGRFTISRDNAKDSLYLQMNSLRADDTAVYYCARDRRELLLDYWGQGTLVTVSS VL: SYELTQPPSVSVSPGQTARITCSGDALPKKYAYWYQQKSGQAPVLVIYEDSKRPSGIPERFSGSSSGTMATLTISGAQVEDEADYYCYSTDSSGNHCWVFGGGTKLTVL",
    "Kd / nM": 295
  },
  {
    "binder": "ABL-CD3-20 (antibody, V domains shown, Chimeric hybridoma mAb: human V, CH1, upper hinge; mouse middle hinge, CH2, CH3) VH: EVQLVESGGGLVKPGGSLRLSCAASGLTFSTYSMNWVRQAPGKGLEWVSSISSSGSYVYYADSVKGRFTMSRDNAKNSLYLQMNSLRAEDTAVYYCARERRELLFDYWGQGTLVTVSS VL: NFMLTQPHSVSESPGKTVTISCTRSSGSIASNYVQWYQQRPGSSPTSVIYEDNQRPSGVPDRFSGSIDSSSNSASLTISGLKTEDEADYYCQSYDRSNRVFGGGTKLTVL",
    "Kd / nM": 18.3
  }
]
